A collection of compounds and their measured remaining activity
- Test system: Aerobactin synthetase IucA (Klebsiella pneumoniae)
- test summary: inhibition of K. pneumoniae IucA enzyme – biochemical, Tocris library, absorbance (AID 1345561);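 further: 100% = enzyme without compound and 0% = no enzyme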
- protocol conditions: purified IucA enzyme assay, absorbance (OD) read-out; stronger effect = lower value; concentration not given here
Active and inactive are the calls of the source. How the calls were made is not given here.

Please review the entries below; each comes with its answer.
{"compound": "CCc1cc(C(C)=O)c(O)cc1OCCCCCC(C)(C)c1nn[nH]n1", "remaining activity": "116% (inactive)"}
{"compound": "C[C@@H](CN1CCC(n2c(=O)[nH]c3cc(Cl)ccc32)CC1)NC(=O)c1ccc2ccccc2c1", "remaining activity": "106% (inactive)"}

Consider the compound shown here: COC(=O)C1=C(C)NC(C)=C(C(=O)OCCSc2ccccc2)C1C (centres undefined) What is its recorded remaining activity?
91.1% (inactive)

###

- test summary: viability loss with induced miR-34 in A549 – imaging, A549 dox-inducible miR-34, nuclei and caspase counts, primary screen (AID 1347080)
- protocol conditions: A549 miR-34 inducible, Hoechst nuclei count, 48 h; measured here: relative caspase fold change +Dox/-Dox
The entries below are paired with their reported fold change.
Number only, please.

So what does the record say about fold change for `CC(C)[C@H](NS(=O)(=O)c1ccc(-c2ccc(Br)cc2)cc1)C(=O)O` ?
1.47

Requested read-out: fold change. Entry: `Cc1c(C2CCN(CCc3ccccc3)CC2)noc1-c1ccc(Cl)cc1`
0.892

Give its fold change value. Item: `Cc1ccccc1N=C(N)Nc1ccccc1C`
0.72

Report fold change for `COc1ccc(S(=O)(=O)Nc2cccnc2Nc2ccc(O)cc2)cc1` please.
0.79

GET /values?readout=fold change&item= `CS(=O)(=O)c1ccc(-c2cnc(N)c(C(=O)Nc3ccccc3)n2)cc1`
0.481

Quick one: fold change of NC(C(=O)O)c1nn[nH]n1 (stereo unspecified) ?
0.805

What does the data say about its fold change? Entry: `O=C(O)/C=C/CCCCCCCCC(=O)O`
1.16

###

- test summary: growth inhibition, single agent and combos, cell-based, chromothripsis tumors, cisplatin or BGB combos (AID 1671450);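 further: cells exposed to compound for four days; 0% = vehicle DMSO and 100% = cell killing by high DMSO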
- protocol conditions: HDN33 neuroblastoma cells, single agent, at 5 µM, stronger effect = higher value
Here, each record is paired with measured inhibition data.
Your answer should be a plain number; it is taken to be in %.

So what's the measured inhibition for this one? `Nc1ncnc2c1c(-c1cnc3[nH]ccc3c1)nn2C1CCCC1`
94.1

Please report the recorded inhibition for `N=C1CCCN1Cc1[nH]c(=O)[nH]c(=O)c1Cl` .
-10.2

Fill blank: measured inhibition of the compound `O=c1[nH]cnc2ccccc12` is ____.
3.32

Entry under review: `CC(C)OC(=O)[C@H](C)N[P@](=O)(OC[C@H]1O[C@@H](n2ccc(=O)[nH]c2=O)[C@](C)(F)[C@@H]1O)Oc1ccccc1` . Reported inhibition?
-12.1

Can you share its inhibition? I mean this compound: `Nc1ccc(-c2ccc3ncc4ccc(=O)n(-c5cccc(C(F)(F)F)c5)c4c3c2)cn1`
91.8

// lookup inhibition for `CN(C)CCN1C(=O)c2cccc3cc(N)cc(c23)C1=O`
62.5

Could you share which inhibition value was measured for `COc1ccc(-n2c(SCCCN3C(=O)c4cccc5cccc(c45)C3=O)nnc2-c2ccncc2)cc1` ?
26.4

Give its inhibition value. Item: `Cc1ccc2nc(NCCN)c3ncc(C)n3c2c1`
57.3

Give the measured inhibition of `CO[C@H]1/C=C/O[C@@]2(C)Oc3c(C)c(O)c4c(O)c(c(/C=N\N5CCN(C6CCCC6)CC5)c(O)c4c3C2=O)NC(=O)/C(C)=C\C=C\[C@H](C)[C@H](O)[C@@H](C)[C@@H](O)[C@@H](C)[C@H](OC(C)=O)[C@@H]1C` .
-3.56

I'd like to know its inhibition. The compound in question is `Cc1ccc([N+](=O)[O-])cc1S(=O)(=O)N(C)/N=C/c1cnc2ccc(Br)cn12`
99.6

Would you kindly share the measured inhibition for `O=C(/C=C/c1ccc(CN(CCO)CCc2c[nH]c3ccccc23)cc1)NO` ?
99.9

Form field: reported inhibition of `CS(=O)(=O)c1ccc(-c2nnc(/C=C/c3nnc(-c4ccc(C#N)cc4)o3)n2-c2ccccc2Cl)nc1`
31.3

Can you look up the measured inhibition of `CN(C)c1ccc(C(=O)NCCCCCCC(=O)NO)cc1` for me?
99.1

###

// values below are reported viability
- test summary: drug combination growth inhibition, ovarian cancer – cell-based, oncology-focused library, rucaparib conditional, profiling panel (AID 1508598)
- protocol conditions: patient-derived ovarian cancer cells, CellTiter-Glo viability, 144 h; at 0.0195 µM; OCI-C5x cells; without rucaparib; stronger effect = lower value
The source made the active and inactive calls.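 Rule for the calls: active = normalized viability below 100% at a tested concentration; inactive = the rest.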

Consider the worked cases shown below.
{"structure as smiles": "CN1CCN(CCOc2cc(OC3CCOCC3)c3c(Nc4c(Cl)ccc5c4OCO5)ncnc3c2)CC1", "viability": "94.6% (active)"}
{"structure as smiles": "Cn1cc(-c2ccc3nnc(Sc4ccc5ncccc5c4)n3n2)cn1", "viability": "122% (inactive)"}
{"structure as smiles": "CN1CCN(c2nc(C3=C(c4c[nH]c5ccccc45)C(=O)NC3=O)c3ccccc3n2)CC1", "viability": "122% (inactive)"}
{"structure as smiles": "CNC(=O)c1ccc(C)c(-n2c(C)cc(OCc3ccc(F)cc3F)c(Br)c2=O)c1", "viability": "113% (inactive)"}

Requested field: viability. Item: `CC(C)c1ccccc1Cc1cc(C(=O)Nc2ccc(S(=O)(=O)c3ccccc3C(C)(C)C)cc2)c(O)c(O)c1O`
109% (inactive)

###

- test summary: viability loss in pontine glioma line – cell-based, SU-DIPG-XXV, MIPE5.0, CellTiter-Glo, qHTS, dose response (AID 1347065);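 further: cells exposed to compound for 48 hours before ATP readout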
- protocol conditions: CellTiter-Glo ATP luminescence
Inconclusive results are not listed. Active and inactive are the calls of the source. The limit is not given here; nearly all actives have AC50 up to about 26 µM.
Classes to choose from: active, inactive

Record excerpt, results attached:
{"compound": "CN1C/C=C/CCOc2cccc(c2)-c2ccnc(n2)Nc2cccc(c2)C1", "class label": "active"}
{"compound": "CNC(=O)c1cc(Oc2ccc(NC(=O)Nc3ccc(Cl)c(C(F)(F)F)c3)c(F)c2)ccn1", "class label": "active"}
{"compound": "Cn1c(=O)c(F)c(Nc2ccc(I)cc2F)c2c(=O)n(C[C@@H](O)CO)cnc21", "class label": "active"}
{"compound": "CCCNC(=O)[C@H]1O[C@@H]1C(=O)N[C@H](C(=O)N1CCC[C@H]1C(=O)OC)C(C)CC (some centres undefined)", "class label": "active"}
{"compound": "CCCc1cc(C)[nH]c(=O)c1CNC(=O)c1cc(-c2ccc(N3CCN(C(C)C)CC3)nc2)cc2c1cnn2C(C)C", "class label": "active"}

Please let me know the test result on file for `CC[C@@H](C)[C@H](NC(=O)[C@H](CC1CCCCC1)NC(=O)c1ccno1)C(=O)N1CCC2(CCc3ccccc32)CC1` .
active

###

- test summary: drug combination growth inhibition, ovarian cancer – cell-based, oncology-focused library, rucaparib conditional, profiling panel (AID 1508598)
- protocol conditions: patient-derived ovarian cancer cells, CellTiter-Glo viability, 144 h; at 0.00122 µM; OCI-C5x cells; with rucaparib 10 µM; 100% = cells with rucaparib alone
Calls of active or inactive are those of the source.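 The calls were made as follows: active = normalized viability below 100% at a tested concentration; inactive = the rest.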
Mark one answer only. Choices: active, inactive

Here's what some known entries look like.
{"compound": "CCOc1ccn(-c2ccc(F)cc2)c(=O)c1C(=O)Nc1ccc(Oc2ccnc(N)c2Cl)c(F)c1", "class label": "inactive"}
{"compound": "COc1cc(Nc2nc3ccccc3nc2NS(=O)(=O)c2ccc(NC(=O)c3ccc(C)c(OC)c3)cc2)cc(OC)c1", "class label": "inactive"}
{"compound": "c1ccc2c(CCNc3ccc(Nc4ccncc4)cc3)c[nH]c2c1", "class label": "inactive"}
{"compound": "COc1ccc(-c2ccc3c(N4CCOC[C@@H]4C)nc(N4CCOC[C@@H]4C)nc3n2)cc1CO", "class label": "inactive"}

Could you check what this test reported for `COCCn1c2c([n+](Cc3cnccn3)c1C)C(=O)c1ccccc1C2=O` ?
active

Which outcome was entered for the compound `Cc1nc2c(-c3cnc(N)nc3)nc(N3CCOCC3)nc2n1C(C)C` in this test?
inactive

Please indicate how the test categorized `COc1cc2nccc(Oc3ccc(NC(=O)NC4CC4)c(Cl)c3)c2cc1C(N)=O` .
inactive

Status in this test for `Cn1cc(CNCC2CCN(c3ncc(C(=O)NO)cn3)CC2)c2ccccc21` ?
inactive

Entry `C[C@@H](Oc1cc(-n2cnc3ccc(CN4CCN(C)CC4)cc32)sc1C(N)=O)c1ccccc1C(F)(F)F` : call = ?
active

Dear all, I need the recorded test outcome for `Cc1ccc(-c2csc(NC(=O)c3ccccc3)n2)c(C)c1` , thank you.
inactive

Assay result, entry `COc1cc2c(Oc3ccc4[nH]c(C)cc4c3F)ncnc2cc1OCCCN1CCCC1` — outcome?
inactive

GET /call?item= CC[C@@H]1C(=O)N(C)c2cnc(Nc3ccc(C(=O)NC4CCC(N5CCN(CC6CC6)CC5)CC4)cc3OC)nc2N1C(C)C (stereo partly drawn) returns the recorded outcome of this test.
inactive

For Nc1cccc2c1C(=O)N(C1CCC(=O)NC1=O)C2=O (stereo not drawn) , what call appears in the results of this test?
inactive

What is the recorded call for this compound in the test? `CO[C@@H](C(=O)N1Cc2[nH]nc(NC(=O)c3ccc(N4CCN(C)CC4)cc3)c2C1)c1ccccc1`
inactive

How was `CN1CCN(c2nc(C3=C(c4c[nH]c5ccccc45)C(=O)NC3=O)c3ccccc3n2)CC1` classified in this test?
inactive

How was `COc1cc(OC)c(/C=C/S(=O)(=O)Cc2ccc(OC)c(NCC(=O)O)c2)c(OC)c1` classified in this test?
inactive

Query: recorded result category for `Cn1cncc1[C@@](N)(c1ccc(Cl)cc1)c1ccc2c(c1)c(-c1cccc(Cl)c1)cc(=O)n2C` in this test
inactive

Could you check what this test reported for `CC1(C)CCC(c2ccc(Cl)cc2)=C(CN2CCN(c3ccc(C(=O)NS(=O)(=O)c4ccc(N[C@H](CCN5CCOCC5)CSc5ccccc5)c(S(=O)(=O)C(F)(F)F)c4)cc3)CC2)C1` ?
active

Data origin: PubChem BioAssay
